# System tested: Adenosine receptor A3 (Homo sapiens, UniProt P0DMS8, W243A)
# Sequence (P0DMS8 whole entry W243A): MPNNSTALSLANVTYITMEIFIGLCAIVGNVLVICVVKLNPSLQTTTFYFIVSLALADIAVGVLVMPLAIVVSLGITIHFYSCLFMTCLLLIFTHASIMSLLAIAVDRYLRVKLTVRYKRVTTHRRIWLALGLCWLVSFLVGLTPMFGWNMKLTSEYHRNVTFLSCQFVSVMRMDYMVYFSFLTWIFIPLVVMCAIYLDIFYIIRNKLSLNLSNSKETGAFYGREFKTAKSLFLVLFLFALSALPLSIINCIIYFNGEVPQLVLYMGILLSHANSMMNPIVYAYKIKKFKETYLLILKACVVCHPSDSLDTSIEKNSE
# Assay comment: Binding affinity towards Adenosine A3 receptor (W243 A mutant receptor)
Consider the following compounds; for each one, report its pKi.
In textbook form, pKi equals minus log to base ten of the concentration in mol/L.

Data request: I have this compound here, OCC12CC1C(n1cnc3c(NCc4cccc(I)c4)ncnc31)C(O)C2O (stereo not given) , and I need its recorded pKi.
Data returned: 8.57

Data request: Can you check Nc1nc(Cl)nc2c1ncn2C1C(O)C(O)C2(CO)CC12 (stereo not given) next?
Data returned: 7.34

Data request: Can you check CNC(=O)C12CC1C(n1cnc3c(NCc4cccc(I)c4)ncnc31)C(O)C2O (stereo not given) next?
Data returned: 8.92

Data request: Can you check OCC12CC1C(n1cnc3c(NCc4cccc(I)c4)nc(Cl)nc31)C1OC12 (stereo not given) next?
Data returned: 6.31

Data request: Can you check OC[C@H]1O[C@@H](n2cnc3c(NC4CCCC4)ncnc32)[C@H](O)[C@@H]1O next?
Data returned: 6.86
